- Assay details: Quantitative High-Throughput drug screen in 47 multiple myeloma cell lines against the NCATS MIPE library collection: ARD_JJKsccE7 cell viability assay (AID 1918929)
- Applied conditions: ARD myeloma cell line viability, CellTiter-Glo, 48 h; series mostly up to 45.8 µM
Results filed as inconclusive are left out. The source made the active and inactive calls. The call rests on the fitted dose curve; in most records, active means well fitted cell-killing curve with a large enough effect; inconclusive means small, poorly fitted or top-dose-only effect, or effect the other way; inactive means no such curve, though single readings can be large or run the other way.
Select the correct class. Options are Y = active, N = inactive and nothing else.

Please review the following examples before continuing.
Compound	Label value
COc1c(Cl)cc2c([nH]c3cnccc32)c1NC(=O)c1cccnc1C	Y
CS(=O)(=O)Oc1ccc2c(NC(N)=O)c(C(=O)c3ccc(Cl)cc3Cl)oc2c1	Y
O=C1CCC(N2C(=O)c3ccccc3C2=O)C(=O)N1 (stereo unspecified)	N
O=c1[nH]cnc2[nH]ncc12	Y
CCn1c(-c2nonc2N)nc2cnc(Oc3cccc(NC(=O)c4ccc(OCCN5CCOCC5)cc4)c3)cc21	Y

With those in mind, consider the next compound.
Status in this test for CS(=O)(=O)c1cccc(CNc2nc(Nc3ccc4c(c3)CCC(=O)N4)ncc2C(F)(F)F)c1 ?
Y

Data origin, for the record: PubChem BioAssay (NCATS)
